# TESTED ON: Histidinol dehydrogenase (Brucella suis biovar 1 (strain 1330), UniProt Q8G2R2)
# Sequence (Q8G2R2 whole entry): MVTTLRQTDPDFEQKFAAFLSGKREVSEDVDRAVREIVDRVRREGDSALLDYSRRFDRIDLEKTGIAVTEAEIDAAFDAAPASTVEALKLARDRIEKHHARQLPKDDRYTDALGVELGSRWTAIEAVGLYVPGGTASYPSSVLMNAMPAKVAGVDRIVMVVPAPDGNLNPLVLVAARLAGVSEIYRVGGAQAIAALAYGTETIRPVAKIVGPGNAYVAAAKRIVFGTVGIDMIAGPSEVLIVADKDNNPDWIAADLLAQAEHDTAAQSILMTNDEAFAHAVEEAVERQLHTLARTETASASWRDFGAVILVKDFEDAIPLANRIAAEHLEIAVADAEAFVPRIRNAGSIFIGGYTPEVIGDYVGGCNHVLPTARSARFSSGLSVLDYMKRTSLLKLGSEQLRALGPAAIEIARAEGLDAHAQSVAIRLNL
# TEST DESCRIPTION: Inhibition of Brucella suis histidinol dehydrogenase
pIC50: −log10 of the molar value.
ENDPOINT NAME: pIC50

In [3]: df
Out[3]:
                         structure_as_smiles  endpoint_name  recorded_number
 0  N[C@@H](Cc1c[nH]cn1)C(=O)Cc1ccc(Oc2ccccc2)cc1          pIC50             7.80
 1    COc1ccc(CC(=O)[C@@H](N)Cc2c[nH]cn2)cc1          pIC50             6.82
 2    N[C@@H](Cc1c[nH]cn1)C(=O)Cc1ccc(F)cc1F          pIC50             8.00
 3    N[C@@H](Cc1c[nH]cn1)C(=O)Cc1ccc(Cl)cc1          pIC50             7.92
 4  N[C@@H](Cc1c[nH]cn1)C(=O)Cc1ccc2ccccc2c1          pIC50             7.84
 5  N[C@@H](Cc1c[nH]cn1)C(=O)Cc1ccc(Cl)c(Cl)c1          pIC50             7.70
 6        N[C@@H](Cc1c[nH]cn1)C(=O)Cc1ccccc1          pIC50             7.40
 7  N[C@@H](Cc1c[nH]cn1)C(=O)Cc1ccc(OCc2ccccc2)cc1          pIC50             8.52
 8  N[C@@H](Cc1c[nH]cn1)C(=O)Cc1c(F)c(F)c(F)c(F)c1F          pIC50             7.15
 9  N[C@@H](Cc1c[nH]cn1)C(=O)Cc1ccc(-c2ccccc2)cc1          pIC50             7.90
10     Cc1ccc(CC(=O)[C@@H](N)Cc2c[nH]cn2)cc1          pIC50             7.82
11  N[C@@H](Cc1c[nH]cn1)C(=O)Cc1cccc2ccccc12          pIC50             6.70
12     N[C@@H](Cc1c[nH]cn1)C(=O)Cc1ccc(F)cc1          pIC50             7.82
13    N[C@@H](Cc1c[nH]cn1)C(=O)Cc1ccc(Br)cc1          pIC50             8.22
14  N[C@@H](Cc1c[nH]cn1)C(=O)Cc1ccc2c(c1)OCO2          pIC50             7.60
